System: Escherichia coli TOP10;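 also: peptides expressed intracellularly from a pBAD plasmid library in pooled LB shake-flask culture, induced with 0.3% L-arabinose, DNA abundance read by NGS, three biological replicates, DESeq2 with apeglm shrinkage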
PROCEDURE_TEXT: shrunken log2 fold change of peptide-encoding DNA abundance (4.5 h post-induction vs induction); higher = less antimicrobial activity (less host growth inhibition)
CONDITION_DETAILS: time post-induction: 4.5 h; library: site-saturation at positions 5, 18, 19, 20
Please note: rule met applies when shrunken log2 fold change is 0.07 or greater, and rule not met applies otherwise.

Example cases with answers are listed next.
RRIRLRPPRLPRPRPRPARFPRP
rule not met
RRIRVRPPRLPRPRPRPKHDPRP
rule not met
RRIRRRPPRLPRPRPRPHGQPRP
rule met
RRIRGRPPRLPRPRPRPFLVPRP
rule not met
RRIRKRPPRLPRPRPRPNPQPRP
rule met
RRIRGRPPRLPRPRPRPHARPRP
rule met
RRIRKRPPRLPRPRPRPDEMPRP
rule met

Now let's try a different one.
[in] Record RRIRGRPPRLPRPRPRPARKPRP ; criterion: shrunken log2 fold change no lower than 0.07. Met?
[out] rule met
